- Test system: P388 leukemia ip, CD2F1 mice, survival T/C
- assay_method_text: NCI In Vivo Anticancer Drug Screen. Data for tumor model P388 Leukemia (intraperitoneal) in CD2F1 (CDF1) mice
- assay_context: endpoint: median survival time; dose: 100.0 mg/kg/injection; schedule: Q01DX005 (ip); vehicle: Klucel + Tween-80; higher = longer survival
- Description: The antitumor activity of compounds was measured in mice bearing transplantable tumors. Survival or tumor size were measured and the results are expressed as the measurement made in the treated group (T) divided by the measurement made in the vehicle treated control group (C). The tumor model used in this assay is P388 Leukemia (intraperitoneal) in CD2F1 (CDF1) mice
Toxic doses and inconclusive results are not listed.
T/C listing for selected molecules.
measure: T/C

structure_notation: CCCCCCCCCCCC1=C(O)C(=O)C(CC2=C(O)C(=O)C(CCCCCCCCCCC)=C(O)C2=O)=C(O)C1=O
data_value: 91 % of control

structure_notation: C/C(N)=N/OC(c1ccccc1)(c1ccccc1)c1ccccc1
data_value: 90 % of control

structure_notation: ClC1=CC(Cl)=C2N=C(N3CCCC3)N=C3N=C(N4CCCC4)N=C1N32
data_value: 93 % of control

structure_notation: CCCCCCCC(=O)Nc1nnc(SCCCCCCCCCCSc2nnc(NC(=O)CCCCCCC)s2)s1
data_value: 87 % of control

structure_notation: c1ccc2sc(SCCCCCCCCCCCCSc3nc4ccccc4s3)nc2c1
data_value: 94 % of control

---

- Tested on: P388 leukemia ip, CD2F1 mice, survival T/C
- assay_method_text: NCI In Vivo Anticancer Drug Screen. Data for tumor model P388 Leukemia (intraperitoneal) in CD2F1 (CDF1) mice
- assay_context: endpoint: median survival time; dose: 50.0 mg/kg/injection; schedule: Q01DX009 (ip); vehicle: saline
Inconclusive results and toxic doses are left out. How the source made its calls: active means survival T/C of 150% or more; inactive means T/C below 125% in these data.
Classes used: class 1 = active, class 0 = inactive

compound: NC(=Nc1ccccc1)c1ccccn1
qualitative_label: class 0
//
compound: O=C(O)CCC(=O)NCCNC(=O)CCC(=O)O
qualitative_label: class 0
//
compound: C=C(C)[C@@H]1CC=C(C)[C@H](O)C1
qualitative_label: class 0
//
compound: C1=Cc2ccccc2C(=C2CCOCC2)c2ccccc21
qualitative_label: class 0
//
compound: CC(=O)OC1C(CO)OC2C1Oc1nc(=N)c(F)cn12 (configuration not stated)
qualitative_label: class 1
//
compound: Cc1cc2nc3ccc(N)cc3oc-2cc1=[N+](C)C
qualitative_label: class 0
//
compound: Nc1ccc(/C=C/c2ccc(N)cc2S(=O)(=O)O)c(S(=O)(=O)O)c1
qualitative_label: class 0

---

T/C listing for selected compounds.
- System: P388 leukemia ip, CD2F1 mice, survival T/C
- assay_method_text: NCI In Vivo Anticancer Drug Screen. Data for tumor model P388 Leukemia (intraperitoneal) in CD2F1 (CDF1) mice
- assay_context: endpoint: median survival time; dose: 200.0 mg/kg/injection; schedule: Q01DX005 (ip); vehicle: Klucel (hydroxypropylcellulose) (HPC); higher = longer survival
Toxic doses and inconclusive results are not listed. Peptide text beside a SMILES is read from it. * marks the point of attachment. Cbz = O=C(OCc1ccccc1)*

compound: CCOC(=O)CC1(O)CSc2nc(N)cc(=O)n21 (stereo not drawn)
T/C: 91 % of control
//
compound: O=[N+]([O-])c1cc2ccc3ccoc3c2o1
T/C: 96 % of control
//
compound: Nc1ccccc1C(=O)N/N=C/c1cccnc1
T/C: 98 % of control
//
compound: O=C(NC(CO)C(=O)NC(Cc1ccc(O)cc1)C(=O)O)OCc1ccccc1 (stereo not drawn) (Cbz-Ser-Tyr-OH; configuration not given here)
T/C: 101 % of control
//
compound: O=C1c2ccccc2C(=O)N1/N=[N+](\[O-])N1CCOCC1
T/C: 101 % of control
//
compound: COc1ccc2c(c1)N(S(=O)(=O)c1ccc(C)cc1)C/C(=C\N1CCN(c3ccccc3)CC1)C2=O
T/C: 91 % of control
//
compound: CCC1=NOC(n2c3ccccc3c3ccccc32)C1 (stereo not drawn)
T/C: 95 % of control
//
compound: COC(=O)/C(C#N)=C/c1ccc2c(c1)OCO2
T/C: 100 % of control
//
compound: CN(C)c1nc(Cl)nc2c1nc(Cl)n2C1CCCCO1 (stereo not drawn)
T/C: 102 % of control
//
compound: COc1ccc(OC(C)C(=O)O)cc1 (stereo not drawn)
T/C: 95 % of control
//
compound: c1ccc(-c2cc(Nc3ccc4c(c3)OCO4)c3cc4c(cc3n2)OCO4)cc1
T/C: 97 % of control
//
compound: O=C1NC(=O)[C@@]2(CCOc3ccc(F)cc32)N1
T/C: 100 % of control
//
compound: Cc1nc2ncn(-c3ccccc3)c2c(=O)n1CC(C)C
T/C: 102 % of control
//
compound: Cc1cnnc2c3ccccc3nn12
T/C: 101 % of control
//
compound: CN1CC[S][Sn]([CH2][Sn]2([c]3ccccc3)[S]CCN(C)CC[S]2)([c]2ccccc2)[S]CC1
T/C: 100 % of control
//
compound: COc1ccc(OC)c2cc3c(cc12)C(=O)C(C)=C(C)C3=O
T/C: 88 % of control
//
compound: CC(=O)N1N=C(C)C2ON=C(c3ccc(Cl)cc3)P21 (stereo not drawn)
T/C: 100 % of control
//
compound: O=C(O)c1cc(-c2ccncc2)nc2ccccc12
T/C: 97 % of control
//
compound: CCOC(=O)C1=C(C)/C(=C/c2[n-]c(Cl)c(C)c2C(=O)OCC)N=C1C.CCOC(=O)C1=C(C)/C(=C/c2[n-]c(Cl)c(C)c2C(=O)OCC)N=C1C.[Ni+2]
T/C: 102 % of control
//
compound: CC(NC(=O)/C=C/c1ccco1)C(=O)NC(Cc1ccccc1)C(N)=O (stereo not drawn)
T/C: 104 % of control
//
compound: O=S1(=O)CC(N2CCOCC2)C2=C(O1)c1sc(-c3ccccc3)nc1CC2 (stereo not drawn)
T/C: 98 % of control
//
compound: O=C(Nc1ccc(Cl)cc1)Sc1nnc2c(n1)[nH]c1ccccc12
T/C: 103 % of control
//
compound: CCOC(=O)c1nn(C)c2oc(=O)ccc12
T/C: 104 % of control
